Test summary: Pharmacokinetic evaluation in the mouse
Format: in vivo
Condition label: plasma, iv; male CD1 mouse, i.v. 2.5 mg/kg; read-out: Vss
Readout name: Vd (L/kg)

• COc1cc(N)c(Cl)cc1C(=O)NC1CCN(CCCOc2ccc(F)cc2)CC1(F)F (single isomer, unassigned) [Compound (−)-17] = 1.9

###

Test summary: Pharmacokinetic evaluation in the rat
Type: in vivo
Condition label: plasma, po; male Sprague Dawley rat, p.o. 10 mg/kg
Readout name: AUC(0-t) (ng·h/mL)

- COc1cc(N)c(Cl)cc1C(=O)NC1CCN(CCCOc2ccc(F)cc2)CC1(F)F (single isomer, unassigned) [Compound (−)-17]: 686

###

Some compounds, each annotated with its measured IC50.
Tested on: Alpha2C (Homo sapiens)
Construct: expressed in transfected cells; host or cells: CHO (membrane fraction)
Sequence (P18825 whole entry): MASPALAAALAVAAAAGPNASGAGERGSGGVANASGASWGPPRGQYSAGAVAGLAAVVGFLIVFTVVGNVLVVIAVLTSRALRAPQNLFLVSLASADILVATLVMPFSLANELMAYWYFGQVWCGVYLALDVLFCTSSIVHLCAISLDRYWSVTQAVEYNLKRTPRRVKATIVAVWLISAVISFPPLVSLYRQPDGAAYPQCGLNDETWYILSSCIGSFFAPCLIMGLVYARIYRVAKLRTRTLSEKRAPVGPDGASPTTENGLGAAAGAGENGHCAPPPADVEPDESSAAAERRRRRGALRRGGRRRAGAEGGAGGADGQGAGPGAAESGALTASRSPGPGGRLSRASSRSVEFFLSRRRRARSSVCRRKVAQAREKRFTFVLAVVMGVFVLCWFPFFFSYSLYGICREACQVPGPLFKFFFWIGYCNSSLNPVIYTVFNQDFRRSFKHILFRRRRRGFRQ
Test summary: Competitive radioligand binding, Alpha2C
Condition label: CHO membranes, 3H-rauwolscine 1 nM; read-out: pIC50 Alpha2C (converted)
Readout name: IC50 (µM)

* COc1cc(N)c(Cl)cc1C(=O)N[C@H]1CCN(CCCOc2ccc(F)cc2)C[C@H]1F (single isomer, unassigned) [(+)-12] | 1.95
* COc1cc(N)c(Cl)cc1C(=O)N[C@H]1CCN(CCCOc2ccc(F)cc2)C[C@H]1F (single isomer, unassigned) [(−)-12] | 5.89
* COc1cc(N)c(Cl)cc1C(=O)N[C@@H]1CCN(CCCOc2ccc(F)cc2)C[C@H]1F (racemic) [(±)-7] | 0.955
* COc1cc(N)c(Cl)cc1C(=O)N[C@H]1CCN(CCCOc2ccc(F)cc2)C[C@H]1F (racemic) [(±)-12] | 2.09
* COc1cc(N)c(Cl)cc1C(=O)N[C@@H]1CCN(CCCOc2ccc(F)cc2)C[C@H]1F (single isomer, unassigned) [(−)-7] | 1.17

###

Some compounds, each annotated with its measured Kb.
Tested on: 5HT2B (Homo sapiens, UniProt P41595)
Sequence (P41595 whole entry): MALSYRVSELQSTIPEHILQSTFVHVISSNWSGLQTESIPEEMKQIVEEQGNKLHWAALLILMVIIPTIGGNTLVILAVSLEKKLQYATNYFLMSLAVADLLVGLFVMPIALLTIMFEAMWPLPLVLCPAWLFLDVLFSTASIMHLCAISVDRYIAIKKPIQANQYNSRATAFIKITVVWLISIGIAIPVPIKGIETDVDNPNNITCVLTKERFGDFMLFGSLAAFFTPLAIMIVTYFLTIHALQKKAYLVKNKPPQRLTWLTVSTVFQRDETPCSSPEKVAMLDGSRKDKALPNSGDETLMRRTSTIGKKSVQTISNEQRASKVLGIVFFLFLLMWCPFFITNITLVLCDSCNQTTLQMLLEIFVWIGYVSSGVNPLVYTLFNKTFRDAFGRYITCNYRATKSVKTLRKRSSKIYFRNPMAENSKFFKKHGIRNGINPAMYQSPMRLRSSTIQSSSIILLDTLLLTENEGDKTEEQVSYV
Test summary: 5-HT2B antagonism, FLIPR intracellular calcium in transfected CHO-K1 cells
Format: cell-based
Design: expressed in transfected cells; host or cells: CHO-K1 (ECACC)
Condition label: modified Cheng Prusoff equation from IC50; read-out: 5-HT2B antagonism KB (apparent dissociation constant)
Readout name: Kb (nM)

- COc1cc(N)c(Cl)cc1C(=O)N[C@H]1CCN(CCCOc2ccc(F)cc2)C[C@H]1F (racemic) [(±)-12]: 4.2
- COc1cc(N)c(Cl)cc1C(=O)NC1CCN(CCCOc2ccc(F)cc2)CC1(F)F (single isomer, unassigned) [Compound (−)-17]: 0.55
- COc1cc(N)c(Cl)cc1C(=O)N[C@@H]1CCN(CCCOc2ccc(F)cc2)C[C@H]1F (racemic) [(±)-7]: 20
- COc1cc(N)c(Cl)cc1C(=O)NC1CCN(CCCOc2ccc(F)cc2)CC1(F)F (single isomer, unassigned; (+)) [(+)-17]: 11

###

Test summary: Cardio-hemodynamic, cardio-electrophysiological, EEG and pulmonary effects in ventilated, anesthetized dogs
Assay type: in vivo, dog
Condition label: Beagle, plasma, iv; dog, 5-min i.v. infusion, dose 1.25 mg/kg (increasing doses, 30-min intervals); read-out: Median plasma level (Cmax)
Readout name: Cmax (ng/mL)

- COc1cc(N)c(Cl)cc1C(=O)NC1CCN(CCCOc2ccc(F)cc2)CC1(F)F (single isomer, unassigned) [Compound (−)-17]: 5200
